Target: Human HDAC7 (Homo sapiens, UniProt Q8WUI4)
Construct: (a.a. 518-end) with N-terminal GST tag; GST (N); host or cells: baculovirus expression system
Sequence (Q8WUI4 518-952 limits assumed): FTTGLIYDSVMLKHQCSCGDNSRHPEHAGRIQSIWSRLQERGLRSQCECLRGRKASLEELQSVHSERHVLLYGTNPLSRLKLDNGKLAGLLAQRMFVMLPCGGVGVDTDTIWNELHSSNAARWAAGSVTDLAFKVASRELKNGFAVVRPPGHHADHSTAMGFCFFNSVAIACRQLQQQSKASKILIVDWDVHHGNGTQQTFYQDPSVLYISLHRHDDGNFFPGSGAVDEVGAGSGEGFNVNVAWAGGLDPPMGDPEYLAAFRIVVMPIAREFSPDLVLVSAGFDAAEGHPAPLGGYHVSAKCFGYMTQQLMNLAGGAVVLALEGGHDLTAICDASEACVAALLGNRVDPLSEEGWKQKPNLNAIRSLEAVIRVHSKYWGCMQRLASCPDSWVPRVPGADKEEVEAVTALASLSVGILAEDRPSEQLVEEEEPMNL
Assay: HDAC7 biochemical assay, class IIa-specific substrate
Conditions: read-out: HDAC Isoform IC50 (nM) 7
assay metric: IC50

Consider the reported IC50 for these molecules:
Observed IC50 on Human HDAC7 (Homo sapiens, UniProt Q8WUI4) for COCc1nccnc1N(Cc1ccc(-c2noc(C(F)(F)F)n2)s1)c1cnccn1 [Example BG] , please.
≤ 10000 nM

Observed IC50 on Human HDAC7 (Homo sapiens, UniProt Q8WUI4) for FC(F)(F)c1nc(-c2ccc(CN(c3cnccn3)c3cnccn3)s2)no1 [Example BA] , please.
≤ 1000 nM

Observed IC50 on Human HDAC7 (Homo sapiens, UniProt Q8WUI4) for CS(=O)(=O)c1cnc(N(Cc2ccc(-c3noc(C(F)(F)F)n3)s2)c2cnccn2)cn1 [Example BL] , please.
≤ 1000 nM

Observed IC50 on Human HDAC7 (Homo sapiens, UniProt Q8WUI4) for O=C(c1cnnc(N(Cc2ccc(-c3noc(C(F)(F)F)n3)s2)c2cnccn2)c1)N1CC[S+]([O-])CC1 [Example FU] , please.
≤ 10000 nM

Observed IC50 on Human HDAC7 (Homo sapiens, UniProt Q8WUI4) for Cc1ccnc(N(Cc2ccc(-c3noc(C(F)(F)F)n3)s2)c2cnccn2)n1 [Example AT] , please.
≤ 10000 nM

Others:
Observed IC50 on Human HDAC7 (Homo sapiens, UniProt Q8WUI4) for Fc1ccnc(N(Cc2ccc(-c3noc(C(F)(F)F)n3)s2)c2cnccn2)c1 [Example AG] , please.
≤ 10000 nM

Observed IC50 on Human HDAC7 (Homo sapiens, UniProt Q8WUI4) for FC(F)(F)c1ncc(N(Cc2ccc(-c3noc(C(F)(F)F)n3)s2)c2cnccn2)cn1 [Example CV] , please.
≤ 1000 nM

Observed IC50 on Human HDAC7 (Homo sapiens, UniProt Q8WUI4) for O=C(c1nccnc1N(Cc1ccc(-c2noc(C(F)(F)F)n2)s1)c1cnccn1)N1CCC1 [Example GP] , please.
≤ 10000 nM
